# Study system: Heat shock factor protein 1 (Homo sapiens)
# Method notes: ATG_HSE_CIS: Attagene CIS-FACTORIAL HepG2 Assay for human Heat Shock Transcription Factor 1 (HSE) (AID 2282953)
# Condition set: HepG2 HSE cis-reporter, Attagene RNA transcription; actives raise or lower the signal
Active and inactive are the calls of the source. The calls were made as follows: active = hit-call score of the fitted dose curve at least 0.9, where 1 is the maximum; inactive = score below 0.9.
Select the correct class. Options are active, inactive and nothing else.

> print(dat)
                                   molecule  group.label
1  CC[C@H]1CC[C@H](NCc2cc3c(cc2OC)[C@H]2C[C@H]2C(=O)N3C)[C@H](c2ccccc2)N1       active
2       Cc1c(-c2cccnc2)c2ccccc2n1CCCCC(=O)O     inactive
3                                    CCOCCO     inactive

Please examine the following record next.
Write down the call the test reported for this molecule. Item: CCOC(=O)c1ccc(C2CCC(NC[C@H](O)COc3ccc(O)c(NS(C)(=O)=O)c3)CC2)cc1 (some centres undefined)
active
